assay: qHTS of pediatric cancer cell lines to identify multiple opportunities for drug repurposing: Primary screen for MG 63 (6-TG R) cells (AID 1347105); details: MG 63 (6-TG R) viability, CellTiter-Glo, 48 h; series mostly up to 46 µM; further: nearly all actives have a fitted effect of over 50% in size
Results filed as inconclusive are left out. Activity calls are given as the source filed them. The call rests on the fitted dose curve; in most records, active means well fitted cell-killing curve with a large enough effect; inconclusive means small, poorly fitted or top-dose-only effect; inactive means no such curve, though single readings can be large or run the other way.
Possible outcomes: 1 for active, -1 for inactive

[[record]]
compound = "COc1cc(C(C)C)c2c(c1)S(=O)(=O)N(COc1cc(=O)n3cccc(OCCN4CCCCC4)c3n1)C2=O"
assigned_label = -1

[[record]]
compound = "O=C(O)[C@H](Cc1c[nH]c2ccccc12)N1C(=O)c2ccccc2C1=O"
assigned_label = -1

[[record]]
compound = "CN1CCC(CNc2ccc3ncc(-c4cccc(OC(F)(F)F)c4)n3n2)CC1"
assigned_label = 1

[[record]]
compound = "CN1c2cc(O)c(N=NC(N)=O)cc2CC1S(=O)(=O)O (stereo not drawn)"
assigned_label = -1

[[record]]
compound = "Clc1cccc(-c2nnnn2Cc2cccnc2)c1Cl"
assigned_label = -1

[[record]]
compound = "COc1ccc(C=Cc2cc(OC)c(OC)c(OC)c2)cc1O"
assigned_label = -1

[[record]]
compound = "Cc1cc(Nc2cc(CN3CCOCC3)c3nc(C)c(Cc4ccc(Cl)cc4F)n3n2)n[nH]1"
assigned_label = 1

[[record]]
compound = "Cc1ccc(CN2CCNCC2)cc1NC(=O)CNc1ccc(F)c(F)c1"
assigned_label = -1

[[record]]
compound = "COc1cc(C(=O)N2CCC(N3CCN(C)CC3)CC2)ccc1Nc1ncc2c(n1)N(C)c1ccccc1C(=O)N2C"
assigned_label = 1

[[record]]
compound = "Cn1c(=O)n(-c2ccc(C(C)(C)C#N)cc2)c2c3cc(-c4cnc5ccccc5c4)ccc3ncc21"
assigned_label = 1

[[record]]
compound = "Cc1cccc(C=NNc2cc(N3CCOCC3)nc(OCCc3ccccn3)n2)c1"
assigned_label = -1

[[record]]
compound = "OCc1ccc(-c2ccc(-c3ccc(CO)s3)o2)s1"
assigned_label = 1

[[record]]
compound = "CN1CCN(c2cc(C(=O)Nc3ccc4c(c3)-c3c(c(C(N)=O)nn3-c3ccc(F)cc3)CC4)c(Cl)cn2)CC1"
assigned_label = 1

[[record]]
compound = "O=C(NCCCNc1nc(Nc2cccc(NC(=O)N3CCCC3)c2)ncc1I)c1cccs1"
assigned_label = 1

[[record]]
compound = "Cc1ccc(-c2ncn(-c3ccc(Nc4nccc(-c5cccc(N6CCOCC6)c5)n4)cc3)n2)cn1"
assigned_label = 1

[[record]]
compound = "CC1(C)OC2=C(C(=O)c3ccccc3C2=O)[C@H](NCc2ccccc2)[C@H]1O"
assigned_label = 1

[[record]]
compound = "Cn1c2cc(S(C)=O)sc2c2cnn(Cc3cccc(N)c3)c(=O)c21 (stereo not drawn)"
assigned_label = -1

[[record]]
compound = "Cc1ccc(C(=O)Nc2cccc(C(F)(F)F)c2)cc1-c1ccc2nc(NCCN3CCOCC3)ncc2c1"
assigned_label = 1

[[record]]
compound = "Cc1nc(N)ncc1-c1nc(N2CCOCC2)c2sc(C(C)(C)O)cc2n1"
assigned_label = 1

[[record]]
compound = "CCS(=O)(=O)c1cccc(-c2cc(C(=O)NC3CCN(C)CC3)c(C)c3[nH]c4ncc(C)cc4c23)c1"
assigned_label = 1

[[record]]
compound = "O=C(Cc1ccc(-c2ccc(OCCN3CCOCC3)cc2)cn1)NCc1ccccc1"
assigned_label = 1

[[record]]
compound = "COc1ccc(-c2cc3c(C)nc(N)nc3n(C3CCC(OCCO)CC3)c2=O)cn1 (stereo not drawn)"
assigned_label = 1

[[record]]
compound = "Cc1cc(N2CCOCC2)cc2[nH]c(-c3c(NC[C@@H](O)c4cccc(Cl)c4)cc[nH]c3=O)nc12"
assigned_label = 1

[[record]]
compound = "O=C1CCC[C@@H]2[C@H]3CCC[N+]4([O-])CCC[C@@H](CN12)[C@@H]34 (stereo partly drawn)"
assigned_label = -1

[[record]]
compound = "CC[C@H](CO)Nc1nc(NCc2ccccc2)c2ncn(C(C)C)c2n1"
assigned_label = -1

[[record]]
compound = "CC[C@@H]1C(=O)N(C)c2cnc(Nc3ccc(C(=O)NC4CCC(N5CCN(CC6CC6)CC5)CC4)cc3OC)nc2N1C(C)C (stereo partly drawn)"
assigned_label = 1

[[record]]
compound = "CC1(C)CCC(c2ccc(Cl)cc2)=C(CN2CCN(c3ccc(C(=O)NS(=O)(=O)c4ccc(N[C@H](CCN5CCOCC5)CSc5ccccc5)c(S(=O)(=O)C(F)(F)F)c4)cc3)CC2)C1"
assigned_label = 1

[[record]]
compound = "C=CC(=O)Nc1cccc(Oc2nc(Nc3ccc(N4CCN(C)CC4)cc3)ncc2Cl)c1"
assigned_label = 1

[[record]]
compound = "COc1ccc2c(c1)CC[C@@H](CN(C)CC(=O)O)[C@H]2c1ccccc1"
assigned_label = 1

[[record]]
compound = "COc1cc2c(cc1-c1c(C)noc1C)ncc1[nH]c(=O)n([C@H](C)c3ccccn3)c12"
assigned_label = 1

[[record]]
compound = "CCN(CC)CCNC(=O)c1ccc2nc(-c3ccccc3)c(-c3ccc(CN4CCC(n5c(=O)[nH]c6ccccc65)CC4)cc3)nc2c1"
assigned_label = 1

[[record]]
compound = "CCN(CC)CCCCNc1ncc2cc(-c3cc(OC)cc(OC)c3)c(NC(=O)NC(C)(C)C)nc2n1"
assigned_label = -1

[[record]]
compound = "CN[C@H]1CCc2cc(OC)c(OC)c(OC)c2-c2ccc(OC)c(=O)cc21"
assigned_label = -1

[[record]]
compound = "C1=CCOCc2cc(ccc2OCCN2CCCC2)Nc2nccc(n2)-c2cccc(c2)OCC1"
assigned_label = 1

[[record]]
compound = "CN1CC[C@@H](c2c(O)cc(O)c3c(=O)cc(-c4ccccc4Cl)oc23)[C@@H](O)C1"
assigned_label = 1

[[record]]
compound = "CC(=O)Nc1sc2c(c1-c1nc3ccccc3s1)CNC2"
assigned_label = -1

[[record]]
compound = "c1nc2nc(Nc3ccc(N4CCOCC4)cc3)nc(NC3CCCCC3)c2[nH]1"
assigned_label = 1

[[record]]
compound = "COc1cc2c(Oc3ccc4[nH]c(C)cc4c3F)ncnc2cc1OCCCN1CCCC1"
assigned_label = 1

